# Experimental system: AMPK
# Assay procedure: AMPK activation, enzyme-linked immunosorbent assay
# Format: biochemical
# Applied conditions: EC50 for AMPK activation, ELISA
Overview of recorded EC50 for various molecules

INSERT INTO measurements (structure_string, experimental_system, measurement_name, observed_result) VALUES
  ('N#Cc1ccc(CN2CCC(NC(=O)c3ccc(NC4CCN(c5ccc(Cl)cc5)CC4)cn3)CC2)cc1', 'AMPK', 'EC50', '< 500 nM'),
  ('COc1ccc(C(=O)C2CCN(c3ccc(C(=O)NC4CCN(Cc5ccc(C#N)cc5)CC4)nc3)CC2)cc1', 'AMPK', 'EC50', '< 500 nM'),
  ('CN1CCN(c2ccc(C(=O)C3CCN(C(=O)c4ccc(C(=O)Nc5ccc(Oc6ccc(F)cc6)nc5)cn4)CC3)cc2)CC1', 'AMPK', 'EC50', '< 500 nM'),
  ('N#Cc1ccc(CN2CCC(NC(=O)c3ccc(C(=O)N4CCC(Oc5ccc(C(=O)C6CC6)cc5)CC4)nc3)CC2)cc1', 'AMPK', 'EC50', '< 500 nM');

# lookup: EC50 of O=C(Nc1ccc(Oc2ccc(F)cc2)nc1)c1ccc(C(=O)N2CCC(Oc3ccc(S(=O)(=O)C4CC4)cc3)CC2)nc1 < 500 nM

Consider next the molecule N#Cc1ccc(OC2CN(C(=O)c3ccc(C(=O)Nc4ccc(Oc5ccc(F)cc5)nc4)nc3)C2)cc1 in the same way. > 10000 nM

Consider next the molecule CS(=O)(=O)c1ccc(OC2CCN(C(=O)c3ccc(C(=O)NC4CCN(Cc5cccc(OC(F)(F)F)c5)CC4)cn3)CC2)cc1 in the same way. 1000 to 5000 nM

Consider next the molecule COc1ccc(CN2CCC(NC(=O)c3ccc(C(=O)N4CCC(C(=O)c5ccc(F)cc5)CC4)cn3)CC2)cc1 in the same way. < 500 nM

Consider next the molecule O=C(c1ccc(C(=O)N2CCN(CCc3ccccc3)CC2)nc1)N1CCN(c2ccccc2)CC1 in the same way. > 10000 nM

Consider next the molecule Cc1cc(CN2CCN(C(=O)c3ccc(C(=O)NC4CCN(Cc5ccccc5)CC4)nc3)CC2)no1 in the same way. 1000 to 5000 nM

----------
# Experimental system: AMPK
# Assay procedure: AMPK activation, enzyme-linked immunosorbent assay
# Applied conditions: EC50 for AMPK activation, ELISA
Measurement name: EC50

Worked set:
INSERT INTO results (compound, measurement_name, observed_result) VALUES
  ('COc1ccc(CN2CCC(NC(=O)c3ccc(C(=O)N4CCC(S(=O)(=O)c5ccc(F)cc5)CC4)nc3)CC2)cc1 [Compound 474]', 'EC50', '1000 to 5000 nM'),
  ('CC1(C)CN(C(=O)c2ccc(C(=O)NC3CCN(Cc4ccc(C#N)cc4)CC3)nc2)CCN1Cc1ccc(F)cc1 [Compound 125]', 'EC50', '< 500 nM'),
  ('CC(=O)Nc1ccc(OC2CCN(C(=O)c3ccc(C(=O)NC4CCN(Cc5cccc(OC(F)(F)F)c5)CC4)cn3)CC2)cc1 [Compound 428]', 'EC50', '500 to 1000 nM'),
  ('N#Cc1ccc(OC2CCN(C(=O)c3ccc(C(=O)NC4CCN(Cc5cc(F)cc(F)c5)CC4)nc3)CC2)cc1 [Compound 289]', 'EC50', '< 500 nM'),
  ('O=C(NC1CCN(Cc2ccccc2)CC1)c1ccc(C(=O)N2CCN(c3ccncc3)CC2)cn1 [Compound 96]', 'EC50', '> 10000 nM');

# lookup: EC50 of CS(=O)(=O)Nc1ccc(CN2CCC(NC(=O)c3ccc(C(=O)N4CCC(Oc5ccc(C#N)cc5)CC4)nc3)CC2)cc1 [Compound 217] > 10000 nM

Consider next the compound N#Cc1ccc(CN2CCC(NC(=O)c3ccc(C(=O)N4CCN(c5ccc(C(F)(F)F)cc5)CC4)cn3)CC2)cc1 [Compound 339] in the same way. < 500 nM
